- Read-out: E-selectin (Homo sapiens) (UniProt P16581)
- Sequence (P16581 whole entry, looked up): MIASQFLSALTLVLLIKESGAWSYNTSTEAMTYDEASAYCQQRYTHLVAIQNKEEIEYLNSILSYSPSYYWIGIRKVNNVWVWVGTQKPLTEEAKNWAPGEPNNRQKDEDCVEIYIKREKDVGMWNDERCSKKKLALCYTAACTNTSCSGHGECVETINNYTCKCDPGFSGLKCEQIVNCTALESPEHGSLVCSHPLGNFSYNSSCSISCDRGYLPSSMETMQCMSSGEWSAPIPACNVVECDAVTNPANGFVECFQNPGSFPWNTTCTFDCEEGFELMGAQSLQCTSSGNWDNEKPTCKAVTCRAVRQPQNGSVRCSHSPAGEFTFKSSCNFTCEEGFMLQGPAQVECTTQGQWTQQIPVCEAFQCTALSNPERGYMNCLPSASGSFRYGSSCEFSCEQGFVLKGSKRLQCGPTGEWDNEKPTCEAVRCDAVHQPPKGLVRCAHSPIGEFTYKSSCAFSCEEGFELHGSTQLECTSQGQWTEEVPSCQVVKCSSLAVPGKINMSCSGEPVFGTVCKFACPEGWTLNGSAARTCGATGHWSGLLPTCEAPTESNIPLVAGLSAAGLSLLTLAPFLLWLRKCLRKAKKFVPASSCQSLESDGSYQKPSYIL
- Assay: BSK_SAg_Eselectin: BioMAP Diversity Plus: SAg Assay for Eselectin Biomarker Activity (AID 2283091)
- Assay Conditions: primary human HUVEC with PBMC; actives raise or lower the signal
Activity calls are given as the source filed them. How the source made its calls: active means hit-call score of the fitted dose curve at least 0.9, where 1 is the maximum; inactive means score below 0.9.
Item-by-item account of AC50

The following compounds have reported results that may help.
{"Line Notation": "CCOP(=S)(OCC)OP(=S)(OCC)OCC", "Assay Value": "35.4 µM (active)"}
{"Line Notation": "c1ccc(-c2cccc(-c3ccccc3)c2)cc1", "Assay Value": "33.1 µM (active)"}
{"Line Notation": "CC(C)N(C(=O)CCl)c1ccccc1", "Assay Value": "20 µM (active)"}

Lab note: next compound to report on.
Problem: Which AC50 is reported for this compound? O=C1C=CC(=O)c2ccccc21
Solution: 1.12 µM (active)
